Measured selectivity ratio, listed per entry.
- protocol-summary: Selectivity index, ratio CC50 for human HepG2(2.2.15) cells to EC90 for decrease in intracellular viral DNA in Hepatitis B virus infected human HepG2(2.2.15) cells
- Type: toxicity, cell-based
- condition-parameters: read-out: Selectivity Index
measured-metric: selectivity ratio

INSERT INTO assay_data (compound, qualifier_symbol, result) VALUES
  ('Cc1ccc(O)c(C(=O)Nc2ncc(Cl)s2)c1', '>', 51),
  ('CCOC(=O)Oc1ccccc1C(=O)Nc1ncc([N+](=O)[O-])s1', '=', 5.5),
  ('CC(=O)Oc1ccccc1C(=O)Nc1ccc(I)cc1', '>', 30),
  ('Cc1cccc(C(=O)Nc2nc(-c3ccccc3)cs2)c1O', '=', 3.3),
  ('N#Cc1cnc(NC(=O)c2ccccc2O)s1', '>', 7.1),
  ('O=C(Nc1ncc([N+](=O)[O-])s1)c1ccccc1O [TIZOXANIDE]', '>', 83),
  ('CC(=O)Oc1ccccc1C(=O)Nc1ccc(Br)cc1', '>', 15),
  ('Cc1ccc(C(=O)Nc2ncc(Cl)s2)c(O)c1', '>', 16),
  ('Cc1cccc(C(=O)Nc2ncc(Br)s2)c1O', '>', 4.5),
  ('O=C(Nc1ncc(Br)s1)c1ccccc1O', '>', 12),
  ('O=C(Nc1ncc(Br)s1)c1cccc(Cl)c1O', '=', 7.7),
  ('Cc1cc([N+](=O)[O-])c(Cl)cc1NC(=O)c1ccccc1O', '=', 52),
  ('O=C(Nc1ncc(Cl)s1)c1ccccc1O', '=', 13),
  ('O=C(Nc1ncc(Br)s1)c1cc(Cl)ccc1O', '=', 4.1),
  ('O=C(Nc1ncc(C(F)(F)F)s1)c1ccccc1O', '>', 3.7);

---

- protocol-summary: Metabolic stability in human liver S9 fraction assessed as compound remaining after 60 mins
- Format: ADME, subcellular
- condition-parameters: read-out: Stability
measured-metric: remaining at 1 h (%)

INSERT INTO assay_data (smiles_str, u, result) VALUES
  ('Cc1ccc(O)c(C(=O)Nc2ncc(Cl)s2)c1', '%', 6);

---

- protocol-summary: Metabolic stability in human liver microsomes assessed as compound remaining after 60 mins
- Assay type: ADME, Microsome
- condition-parameters: read-out: Stability
measured-metric: remaining at 1 h (%)

INSERT INTO results (smiles_str, measured_metric, result) VALUES
  ('Cc1ccc(O)c(C(=O)Nc2ncc(Cl)s2)c1', 'remaining at 1 h', 16);

---

- protocol-summary: Cytotoxicity against human HepG2(2.2.15) cells after 24 hrs by neutral red dye uptake assay
- Type: cell-based
- condition-parameters: hepg2 2.2.15, 24 h
// assign T if CC50 falls strictly below 20 µM, else F (ties count as F)

INSERT INTO results (smiles_str, answer_label) VALUES
  ('O=C(Nc1ncc(Br)s1)c1cccc(Cl)c1O', 'F'),
  ('O=C(Nc1ncc(F)s1)c1ccccc1O', 'F'),
  ('O=C(Nc1nccs1)c1ccccc1O', 'T'),
  ('O=C(Nc1ncc(Br)s1)c1ccc(F)cc1O', 'T'),
  ('COC(=O)c1cnc(NC(=O)c2ccccc2O)s1', 'T'),
  ('O=C(Nc1nc(-c2ccccc2)cs1)c1ccccc1O', 'F'),
  ('CCOC(=O)Oc1ccccc1C(=O)Nc1ncc([N+](=O)[O-])s1', 'T'),
  ('O=C(Nc1ncc(Br)s1)c1cc(Cl)ccc1O', 'F'),
  ('O=C(Nc1ncc(Cl)s1)c1ccccc1O', 'F'),
  ('Cc1cccc(C(=O)Nc2ncc(Cl)s2)c1O', 'F'),
  ('Cc1cc([N+](=O)[O-])c(Cl)cc1NC(=O)c1ccccc1O', 'F');

---

- protocol-summary: Selectivity index, ratio CC50 for human HepG2(2.2.15) cells to EC90 for decrease in extracellular viral DNA in Hepatitis B virus infected human HepG2(2.2.15) cells
- Assay type: toxicity
- condition-parameters: read-out: Selectivity Index
Decision: selectivity ratio >= 10 yields MET, all other cases yield NOT MET.

INSERT INTO results (smiles_str, answer_label) VALUES
  ('CC(=O)Oc1ccccc1C(=O)Nc1ccc(Br)cc1', 'MET'),
  ('O=C(Nc1ncc(Br)s1)c1ccc(F)cc1O', 'NOT MET'),
  ('O=C(Nc1nc(-c2ccccc2)cs1)c1ccccc1O', 'NOT MET'),
  ('Cc1ccc(C(=O)Nc2ncc(Cl)s2)c(O)c1', 'MET'),
  ('CCOC(=O)Oc1ccccc1C(=O)Nc1ncc([N+](=O)[O-])s1', 'MET'),
  ('O=C(Nc1nc(-c2ccccc2)cs1)c1cccc(Cl)c1O', 'MET'),
  ('CC(=O)Oc1ccccc1C(=O)Nc1ccc(I)cc1', 'MET'),
  ('O=C(Nc1ncc(Br)s1)c1cccc(Cl)c1O', 'MET'),
  ('O=C(Nc1ncc(Br)s1)c1ccccc1O', 'MET'),
  ('Cc1cc([N+](=O)[O-])c(Cl)cc1NC(=O)c1ccccc1O', 'MET'),
  ('Cc1cccc(C(=O)Nc2nc(-c3ccccc3)cs2)c1O', 'MET');

---

Measured selectivity ratio, listed per entry.
- protocol-summary: Selectivity index, ratio CC50 for human HepG2(2.2.15) cells to EC90 for decrease in extracellular viral DNA in Hepatitis B virus infected human HepG2(2.2.15) cells
- Assay type: toxicity
- condition-parameters: read-out: Selectivity Index
measured-metric: selectivity ratio

INSERT INTO measurements (compound, measured_metric, qualifier_symbol, result) VALUES
  ('CC(=O)Oc1ccccc1C(=O)Nc1ccc(Cl)cc1', 'selectivity ratio', '=', 11),
  ('O=C(Nc1ncc(Br)s1)c1cc(Cl)ccc1O', 'selectivity ratio', '=', 41),
  ('O=C(Nc1ncc(Cl)s1)c1ccccc1O', 'selectivity ratio', '=', 43),
  ('Cc1ccc(O)c(C(=O)Nc2ncc(Cl)s2)c1', 'selectivity ratio', '>', 120),
  ('CC(=O)Oc1ccccc1C(=O)Nc1cc(C(F)(F)F)cc(C(F)(F)F)c1', 'selectivity ratio', '>', 7.1),
  ('N#Cc1cnc(NC(=O)c2ccccc2O)s1', 'selectivity ratio', '>', 11),
  ('Cc1cccc(C(=O)Nc2ncc(Br)s2)c1O', 'selectivity ratio', '>', 11),
  ('O=C(Nc1ncc([N+](=O)[O-])s1)c1ccccc1O [TIZOXANIDE]', 'selectivity ratio', '>', 172),
  ('O=C(Nc1ncc(F)s1)c1ccccc1O', 'selectivity ratio', '=', 4.3);

Origin of values: ChEMBL document CHEMBL1800054
